- Tested on: 855422-203-R-J1-PDC complex spheroid growth;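 further: spheroids exposed to agents for seven days before readout; percent of DMSO vehicle control luminescence viability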
- assay_details: Anticancer human tumor 855422-203-R-J1-PDC patient-derived bladder carcinoma cell line growth inhibition [AhR]; active means viability on the fitted dose curve at most 10% of control; inactive means the rest
- run_parameters: second compound 10 µM; first compound 1 µM
In this exercise, the only acceptable responses are 1 (yes) for active, 0 (no) for inactive

Solved cases below.
* O=C(C=Cc1cccc(S(=O)(=O)Nc2ccccc2)c1)NO + CC(CO)NC(=O)c1cc(-c2ccc(Cl)cc2)nn(-c2cnn(C)c2)c1=O | 0 (no)
* CC1(C)CCC(CN2CCN(c3ccc(C(=O)NS(=O)(=O)c4ccc(NCC5CCOCC5)c([N+](=O)[O-])c4)c(Oc4cnc5[nH]ccc5c4)c3)CC2)=C(c2ccc(Cl)cc2)C1 + CC(CO)NC(=O)c1cc(-c2ccc(Cl)cc2)nn(-c2cnn(C)c2)c1=O | 0 (no)
* COc1cccc2c1C(=O)c1c(O)c3c(c(O)c1C2=O)CC(O)(C(=O)CO)CC3OC1CC(N)C(O)C(C)O1 (configuration not stated) + Cc1ccccc1N=Nc1ccc(NC(=O)c2ccnn2C)c(C)c1 | 1 (yes)
* CC1(C)CCC(CN2CCN(c3ccc(C(=O)NS(=O)(=O)c4ccc(NCC5CCOCC5)c([N+](=O)[O-])c4)c(Oc4cnc5[nH]ccc5c4)c3)CC2)=C(c2ccc(Cl)cc2)C1 + Cc1cncc(-c2nc(NCCc3c[nH]c4ccccc34)c3ncn(C(C)C)c3n2)c1 | 0 (no)
* O=C(c1cc(Cc2n[nH]c(=O)c3ccccc23)ccc1F)N1CCN(C(=O)C2CC2)CC1 + CC(CO)NC(=O)c1cc(-c2ccc(Cl)cc2)nn(-c2cnn(C)c2)c1=O | 0 (no)
* Nc1ncn(C2CC(O)C(CO)O2)c(=O)n1 (configuration not stated) + Cc1ccccc1N=Nc1ccc(NC(=O)c2ccnn2C)c(C)c1 | 0 (no)
* CC1COCCN1c1cc(C2(S(C)(=N)=O)CC2)nc(-c2ccnc3[nH]ccc23)n1 (configuration not stated) + CC(CO)NC(=O)c1cc(-c2ccc(Cl)cc2)nn(-c2cnn(C)c2)c1=O | 0 (no)
* COc1cccc2c1C(=O)c1c(O)c3c(c(O)c1C2=O)CC(O)(C(=O)CO)CC3OC1CC(N)C(O)C(C)O1 (configuration not stated) + Cc1cncc(-c2nc(NCCc3c[nH]c4ccccc34)c3ncn(C(C)C)c3n2)c1 | 1 (yes)
* CC(C)c1c(-c2ccccc2)nc2c(C#N)c[nH]n2c1=O + CC(CO)NC(=O)c1cc(-c2ccc(Cl)cc2)nn(-c2cnn(C)c2)c1=O | 0 (no)
* CC1COCCN1c1cc(-c2ccnn2C)c2ccnc(-c3ccn[nH]3)c2n1 (configuration not stated) + Cc1cncc(-c2nc(NCCc3c[nH]c4ccccc34)c3ncn(C(C)C)c3n2)c1 | 1 (yes)

**Query** Would you mind telling me which call this test gave Nc1ccccc1NC(=O)c1ccc(CNC(=O)OCc2cccnc2)cc1 + Cc1ccccc1N=Nc1ccc(NC(=O)c2ccnn2C)c(C)c1 ?
**Result** 0 (no)

**Query** What is the recorded call for this compound in the test? Nc1ncn(C2CC(O)C(CO)O2)c(=O)n1 (configuration not stated) + CC(CO)NC(=O)c1cc(-c2ccc(Cl)cc2)nn(-c2cnn(C)c2)c1=O
**Result** 0 (no)
